Examples of compounds with documented microsomal CLint follow.
assay: in vitro; conditions: dog, microsomes

compound: CCc1c(F)ccc2cc(O)cc(-c3ncc4c(N5CCC[C@@](C)(O)C5)nc(OCC5(CN6CCC7(CC6)CC(c6cn([C@H](C(=O)N8C[C@H](O)C[C@H]8C(=O)N[C@@H](C)c8ccc(-c9scnc9C)cc8)C(C)C)nn6)C7)CC5)nc4c3F)c12 [Compound 71]
microsomal CLint / µL/min/mg: 6.5
//
compound: CCc1c(F)ccc2cc(O)cc(-c3ncc4c(N5CCC[C@@](C)(O)C5)nc(OCC5(CN6CCC(n7cc(-c8cn([C@H](C(=O)N9C[C@H](O)C[C@H]9C(=O)N[C@@H](C)c9ccc(-c%10scnc%10C)cc9)C(C)C)nn8)cn7)CC6)CC5)nc4c3F)c12 [Compound 138]
microsomal CLint / µL/min/mg: 25.5
